target: DNA topoisomerase 1 (Homo sapiens); experiment: Inhibition of topoisomerase-1 at 100 uM
The source made the active and inactive calls. The rule behind the calls is not given here.
Assign a class; possible classes are T = active, F = inactive

Per the records of this test, what outcome belongs to "CC[C@]1(F)C(=O)OCc2c1cc1n(c2=O)Cc2cc3c4c(ccc3nc2-1)OCO4" ?
F

Now give it for "CC[C@]1(F)C(=O)OCc2c1cc1n(c2=O)Cc2cc3cc4c(cc3nc2-1)OCO4" too.
F

Now give it for "CC[C@]1(F)C(=O)OCc2c1cc1n(c2=O)Cc2c-1nc1ccc(O)cc1c2[Si](C)(C)C(C)(C)C" too.
F

Now give it for "CC[C@]1(F)C(=O)OCc2c1cc1n(c2=O)Cc2cc3ccccc3nc2-1" too.
F

Now give it for "CC[C@]1(F)C(=O)OCc2c1cc1n(c2=O)Cc2cc3cc(F)ccc3nc2-1" too.
F

Now give it for "CC[C@@]1(F)C(=O)OCc2c1cc1n(c2=O)Cc2cc3ccccc3nc2-1" too.
T

Data provenance: ChEMBL document CHEMBL1140417
